- System: COG-LL-332h
- Procedure Details: selective drug sensitivity score (sDSS, relative to normal bone marrow) (sDSS (score)); higher = more potent and effective on the cell line relative to normal bone marrow cells;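 further: ALL cell lines in 384-well plates, five doses spanning 10,000-fold, each plate scaled between vehicle and 100 µmol/L benzalkonium chloride controls, sDSS an adapted area-under-curve metric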
- Condition: 72 h
Give measured selective drug sensitivity score for each item. Keep answers brief.

// known answers, use as guide
Molecule	selective drug sensitivity score
N[C@@H]1CCCN(c2c(/C=C3\SC(=O)NC3=O)cccc2-c2ccccc2)C1 [AZD1208] (top concentration 10000 nM)	-2.9
Cc1cc(-c2ncc(CC(=O)Nc3ccc(-c4cnccn4)cn3)cc2C)ccn1 [NVP-LGK974] (top concentration 10000 nM)	0.5
O=C(NC1CCNCC1)c1n[nH]cc1NC(=O)c1c(Cl)cccc1Cl [AT7519] (top concentration 10000 nM)	-5.06

Provide reported selective drug sensitivity score for each item, in the same order as listed.
1. COc1cc2c(N3CCN(C(=O)Nc4ccc(OC(C)C)cc4)CC3)ncnc2cc1OCCCN1CCCCC1 [Tandutinib] (top concentration 1000 nM)
2. CNc1nc(-c2ccc3c(N)n[nH]c3c2)cc(N2C[C@@H](C(=O)NC3CCCCC3)CC[C@H]2C)n1 (top concentration 10000 nM)

1: 0; 2: -0.14

Provide reported selective drug sensitivity score for each item, in the same order as listed.
1. CC1(C)CNc2cc(NC(=O)c3cccnc3NCc3ccncc3)ccc21 [Motesanib] (top concentration 10000 nM)
2. CCc1nc(C(N)=O)c(Nc2ccc(N3CCC(N4CCN(C)CC4)CC3)c(OC)c2)nc1NC1CCOCC1 [Gilteritinib] (top concentration 1000 nM)

[-0.22, -2.52]

Provide reported selective drug sensitivity score for each item, in the same order as listed.
1. CO[C@H]1C[C@@H]2CC[C@@H](C)[C@@](O)(O2)C(=O)C(=O)N2CCCC[C@H]2C(=O)O[C@H]([C@H](C)C[C@@H]2CC[C@@H](OC(=O)C(C)(CO)CO)[C@H](OC)C2)CC(=O)[C@H](C)/C=C(\C)[C@@H](O)[C@@H](OC)C(=O)[C@H](C)C[C@H](C)/C=C/C=C/C=C/1C [Temsirolimus] (top concentration 100 nM)
2. COc1cc2c(cc1OCCCN1CCCC1)N=C(N)C21CCC1 [A-366] (top concentration 25000 nM)
3. CCOCc1nc2c(N)nc3ccccc3c2n1CC(C)(C)O [Resiquimod] (top concentration 10000 nM)
4. Cc1ncc(-c2ccnc(Nc3ccc(S(C)(=O)=O)cc3)n2)n1C(C)C [AZD-5438] (top concentration 10000 nM)
5. Cn1nnc2c(C(N)=O)ncn2c1=O [Temozolomide] (top concentration 100000 nM)
6. NC[C@@](O)(c1ccc(Cl)cc1)c1ccc(-c2cn[nH]c2)cc1 (top concentration 10000 nM)

1. 8.46
2. 4.86
3. -4.72
4. -0.16
5. -0.04
6. 2.68

* * *

Give measured selective drug sensitivity score for each item. Keep answers brief.
- Test system: NALM-16
- Procedure Details: selective drug sensitivity score (sDSS, relative to normal bone marrow) (sDSS (score)); higher = more potent and effective on the cell line relative to normal bone marrow cells
- Condition: 72 h

Provide reported selective drug sensitivity score for each item, in the same order as listed.
1. CC#CC(=O)N1CCC[C@H]1c1nc(-c2ccc(C(=O)Nc3ccccn3)cc2)c2c(N)nccn12 [Acalabrutinib] (top concentration 1000 nM)
2. O=C(O)C(=O)O.[NH-][C@@H]1CCCC[C@H]1[NH-].[Pt+2] [Oxaliplatin] (top concentration 100000 nM)
3. COc1cccc(-c2ccc(NC(=O)C3=C(C(=O)O)CCC3)c(F)c2)c1 [Vidofludimus] (top concentration 10000 nM)
4. C[C@@H](Oc1cc(-c2cnn(C3CCNCC3)c2)cnc1N)c1c(Cl)ccc(F)c1Cl [Crizotinib] (top concentration 1000 nM)
5. CC(C)C[C@H](NC(=O)CNC(=O)c1cc(Cl)ccc1Cl)B(O)O [Ixazomib] (top concentration 1000 nM)
6. CCN(CC)C(=S)SSC(=S)N(CC)CC [Disulfiram(+CuCl2)] (top concentration 50000 nM)
7. CC1(COc2ccc3c(c2)ncn3-c2ccc3cccc(N4CCC(N)CC4)c3n2)COC1 [Crenolanib] (top concentration 10000 nM)

[-0.1, -1.48, 3.5, -0.54, 0.66, -2.12, -7.62]

* * *

- Test system: RCH-ACV
- Procedure Details: selective drug sensitivity score (sDSS, relative to normal bone marrow) (sDSS (score)); higher = more potent and effective on the cell line relative to normal bone marrow cells
- Condition: 72 h
The threshold is inclusive: selective drug sensitivity score of exactly 0 counts as fulfilled; values below receive not fulfilled.

Past entries and their recorded results:
Compound	Assigned Class
C/C=C1\NC(=O)[C@H]2CSSCC/C=C/[C@H](CC(=O)N[C@H](C(C)C)C(=O)N2)OC(=O)[C@H](C(C)C)NC1=O [Romidepsin] (top concentration 1000 nM)	fulfilled
COc1cccc2c1C(=O)c1c(O)c3c(c(O)c1C2=O)C[C@@](O)(C(=O)CO)C[C@@H]3O[C@H]1C[C@H](N)[C@H](O)[C@H](C)O1 [Doxorubicin] (top concentration 1000 nM)	fulfilled
CC1(C)CNc2cc(NC(=O)c3cccnc3NCc3ccncc3)ccc21 [Motesanib] (top concentration 10000 nM)	not fulfilled

Determine whether this compound has selective drug sensitivity score no lower than 0: O=C(CCCCCCC(=O)Nc1ccc([C@H]2O[C@@H](CSc3nc(-c4ccccc4)c(-c4ccccc4)o3)C[C@@H](c3ccc(CO)cc3)O2)cc1)NO [Tubacin] (top concentration 10000 nM)
fulfilled

* * *

- Test system: MOLT-4
- Procedure Details: selective drug sensitivity score (sDSS, relative to normal bone marrow) (sDSS (score)); higher = more potent and effective on the cell line relative to normal bone marrow cells
- Condition: 72 h
Give measured selective drug sensitivity score for each item. Keep answers brief.
Numbers only.

Provide reported selective drug sensitivity score for each item, in the same order as listed.
1. COc1cc([C@@H]2c3cc4c(cc3[C@@H](O[C@@H]3O[C@@H]5CO[C@@H](c6cccs6)O[C@H]5[C@H](O)[C@H]3O)[C@H]3COC(=O)[C@H]23)OCO4)cc(OC)c1O [Teniposide] (top concentration 10000 nM)
2. CC(C)Oc1ccc(C(=O)N[C@H](CNC(=O)CN(C)C)Cc2ccc(-c3cn4cccc([C@H](C)O)c4n3)cc2)cc1Cl (top concentration 10000 nM)
3. Cc1cc(OCc2nnc(SC3CCCC3)n2-c2cccnc2)ccc1-c1ccc(S(C)(=O)=O)cc1 [NMS-873] (top concentration 10000 nM)
4. O=C(CCCCCCC(=O)Nc1ccc([C@H]2O[C@@H](CSc3nc(-c4ccccc4)c(-c4ccccc4)o3)C[C@@H](c3ccc(CO)cc3)O2)cc1)NO [Tubacin] (top concentration 10000 nM)
5. COc1ccccc1S(=O)(=O)Nc1ccc2c(c1)CN(C)C(=O)N2 [PFI-1] (top concentration 30000 nM)

[0, 18.2, 17.4, 8.34, -0.9]

* * *

- System: PEER
- Procedure Details: selective drug sensitivity score (sDSS, relative to normal bone marrow) (sDSS (score)); higher = more potent and effective on the cell line relative to normal bone marrow cells
- Condition: 72 h
Give measured selective drug sensitivity score for each item. Keep answers brief.
One number for each entry.

// known answers, use as guide
> print(dat)
                                   molecule  target.entity                 recorded.endpoint  reported.result
1  CC/C(=C(\c1ccccc1)c1ccc(OCCN(C)C)cc1)c1ccccc1 [Tamoxifen] (top concentration 10000 nM)           PEER  selective drug sensitivity score             1.02
2  CC1(C)OCCn2c1nc1c(N3CCOCC3)nc(-c3cnc(N)nc3)nc12 [GDC-0084] (top concentration 10000 nM)           PEER  selective drug sensitivity score                2
3  CCN1C(=O)CNc2ncc(-c3ccc(-c4nc[nH]n4)nc3C)nc21 [CC-115] (top concentration 10000 nM)           PEER  selective drug sensitivity score             2.34

Now examine the next entry.
Give its selective drug sensitivity score value. Item: C=CC(=O)N1CCC[C@@H](n2nc(-c3ccc(Oc4ccccc4)cc3)c3c(N)ncnc32)C1 [Ibrutinib] (top concentration 1000 nM)
0.6

* * *

Give measured selective drug sensitivity score for each item. Keep answers brief.
- Tested on: RPMI-8402
- Procedure Details: selective drug sensitivity score (sDSS, relative to normal bone marrow) (sDSS (score)); higher = more potent and effective on the cell line relative to normal bone marrow cells
- Condition: 72 h
Answers are plain numbers.

// known answers, use as guide
> print(dat)
                                   compound  reported.result
1  CCOC(=O)C1=CCCC[C@H]1S(=O)(=O)Nc1ccc(F)cc1Cl [Resatorvid] (top concentration 10000 nM)                0
2  Cc1cccc(-c2nn3c(c2-c2ccnc4ccc(C(N)=O)cc24)CCC3)n1 [Galunisertib] (top concentration 1000 nM)                0
3  CCN(CC)CCCC(C)Nc1ccnc2cc(Cl)ccc12 (configuration not stated) [Chloroquine] (top concentration 100000 nM)            -1.74
4  Cc1cc(F)c(C(=O)Nc2cccc(-c3nncn3C(C)C)n2)cc1-n1cnc(C2CC2)c1 [Selonsertib] (top concentration 1000 nM)                0
5  COc1cccc(-c2ccc(NC(=O)C3=C(C(=O)O)CCC3)c(F)c2)c1 [Vidofludimus] (top concentration 10000 nM)              3.9

Provide reported selective drug sensitivity score for each item, in the same order as listed.
1. O=C(NC1CCNCC1)c1n[nH]cc1NC(=O)c1c(Cl)cccc1Cl [AT7519] (top concentration 10000 nM)
2. NCC(=O)Nc1ccc(-n2nc(C(F)(F)F)cc2-c2ccc3c(ccc4ccccc43)c2)cc1 (top concentration 25000 nM)
3. CC#CC(=O)N1CCC[C@H]1c1nc(-c2ccc(C(=O)Nc3ccccn3)cc2)c2c(N)nccn12 [Acalabrutinib] (top concentration 1000 nM)

[-7.46, 13, -0.1]

Provide reported selective drug sensitivity score for each item, in the same order as listed.
1. CCN(CC)Cc1ccc2cc(COC(=O)Nc3ccc(C(=O)NO)cc3)ccc2c1 [Givinostat] (top concentration 1000 nM)
2. Cn1cncc1[C@@](N)(c1ccc(Cl)cc1)c1ccc2c(c1)c(-c1cccc(Cl)c1)cc(=O)n2C [Tipifarnib] (top concentration 10000 nM)
3. CC1(C)OCCn2c1nc1c(N3CCOCC3)nc(-c3cnc(N)nc3)nc12 [GDC-0084] (top concentration 10000 nM)
4. Cc1c(C(=O)Nc2ccc(N3C[C@@H](C)O[C@@H](C)C3)nc2)cccc1-c1ccc(OC(F)(F)F)cc1 [Sonidegib] (top concentration 10000 nM)

3.9
20.9
5.1
1.88

Provide reported selective drug sensitivity score for each item, in the same order as listed.
1. COc1cc(N2CCC(N3CCN(C)CC3)CC2)ccc1Nc1ncc(Cl)c(Nc2ccccc2P(C)(C)=O)n1 [Brigatinib] (top concentration 1000 nM)
2. CCCCc1nc2cc(/C=C/C(=O)NO)ccc2n1CCN(CC)CC [Pracinostat] (top concentration 10000 nM)
3. CC(C)c1cc(-c2n[nH]c(=O)n2-c2ccc3c(ccn3C)c2)c(O)cc1O [Ganetespib] (top concentration 1000 nM)
4. CS(=O)(=O)c1ccc(C(=O)Nc2ccc(Cl)c(-c3ccccn3)c2)c(Cl)c1 [Vismodegib] (top concentration 10000 nM)
5. CC(C)c1cc(C(=O)N2Cc3ccc(CN4CCN(C)CC4)cc3C2)c(O)cc1O [Onalespib] (top concentration 2500 nM)

1: -2.44; 2: 5.08; 3: -1.66; 4: -1.14; 5: 1.32
